Tested on: E. coli (ATCC 25922)
test name: microbe, parasite or virus in culture
Assay type: cell-based, Escherichia coli
conditions used: ATCC 25922, 24 h
Experimental: The antibacterial activity of all ten synthesized linear and cyclic peptides was evaluated against MRSA (ATCC BAA-1556), S. aureus (ATCC 29213), E. faecium (ATCC 700221), S. pneumoniae (ATCC 51938), E. faecalis (ATCC 29212), B. subtilis (ATCC-6633), K. pneumoniae (ATCC BAA-1705), P. aeruginosa (ATCC 27883), and E. coli (ATCC 25922). […] The MIC was determined by micro-broth dilution protocol, where the minimal concentrations were determined to be in wells with no visible bacterial growth. […]
Non-standard residues stand in square brackets, D forms with d. Residues, ends and D or L forms follow the SMILES beside them. Dip = N[C@H](C(=O)O)C(c1ccccc1)c1ccccc1
List of MIC values.
# value in µM; strip the unit string

Below, each entry is followed by its recorded MIC result.
N=C(N)NCCC[C@@H]1NC(=O)[C@H](Cc2c[nH]c3ccccc23)NC(=O)[C@H](CCCNC(=N)N)NC(=O)[C@H](Cc2c[nH]c3ccccc23)NC(=O)[C@H](CCCNC(=N)N)NC(=O)[C@H](C(c2ccccc2)c2ccccc2)NC(=O)[C@H](CCCNC(=N)N)NC(=O)[C@H](C(c2ccccc2)c2ccccc2)NC(=O)[C@H](CCCNC(=N)N)NC(=O)[C@H](Cc2c[nH]c3ccccc23)NC1=O [[(DipR)2(WR)3]] (cyclo([Dip]R[Dip]RWRWRWR)); 12.5
N=C(N)NCCC[C@H](NC(=O)[C@@H](NC(=O)[C@H](CCCNC(=N)N)NC(=O)[C@@H](NC(=O)[C@H](CCCNC(=N)N)NC(=O)[C@@H](NC(=O)[C@H](CCCNC(=N)N)NC(=O)[C@@H](NC(=O)[C@H](CCCNC(=N)N)NC(=O)[C@@H](N)Cc1c[nH]c2ccccc12)C(c1ccccc1)c1ccccc1)C(c1ccccc1)c1ccccc1)C(c1ccccc1)c1ccccc1)C(c1ccccc1)c1ccccc1)C(=O)O [((DipR)4(WR))] (H-WR[Dip]R[Dip]R[Dip]R[Dip]R-OH); 12.5
N=C(N)NCCC[C@H](NC(=O)[C@H](CCCNC(=N)N)NC(=O)[C@@H](NC(=O)[C@H](CCCNC(=N)N)NC(=O)[C@@H](NC(=O)[C@H](CCCNC(=N)N)NC(=O)[C@@H](NC(=O)[C@H](CCCNC(=N)N)NC(=O)[C@@H](N)C(c1ccccc1)c1ccccc1)C(c1ccccc1)c1ccccc1)C(c1ccccc1)c1ccccc1)C(c1ccccc1)c1ccccc1)C(=O)O [(DipR)4R] (H-[Dip]R[Dip]R[Dip]R[Dip]RR-OH); 6.3
N=C(N)NCCC[C@H](NC(=O)[C@@H](NC(=O)[C@H](CCCNC(=N)N)NC(=O)[C@@H](NC(=O)[C@H](CCCNC(=N)N)NC(=O)[C@@H](NC(=O)[C@H](CCCNC(=N)N)NC(=O)[C@H](Cc1c[nH]c2ccccc12)NC(=O)[C@H](CCCNC(=N)N)NC(=O)[C@@H](N)Cc1c[nH]c2ccccc12)C(c1ccccc1)c1ccccc1)C(c1ccccc1)c1ccccc1)C(c1ccccc1)c1ccccc1)C(=O)O [((DipR)3(WR)2)] (H-WRWR[Dip]R[Dip]R[Dip]R-OH); 12.5

Switching to the query record.
Which MIC value belongs to N=C(N)NCCC[C@@H]1NC(=O)[C@H](Cc2c[nH]c3ccccc23)NC(=O)[C@H](CCCNC(=N)N)NC(=O)[C@H](Cc2c[nH]c3ccccc23)NC(=O)[C@H](CCCNC(=N)N)NC(=O)[C@H](C(c2ccccc2)c2ccccc2)NC(=O)[C@H](CCCNC(=N)N)NC(=O)[C@H](Cc2c[nH]c3ccccc23)NC(=O)[C@H](CCCNC(=N)N)NC(=O)[C@H](Cc2c[nH]c3ccccc23)NC1=O [[(DipR)(WR)4]] (cyclo([Dip]RWRWRWRWR)) ?
12.5
